Below, each entry is listed with its recorded melting point.
reported.endpoint: melting point

> print(dat)
                                    compound  observed.result
 1  Cc1n[nH]c2cc(-c3nn(Cc4oc5ccc(F)cc5c(=O)c4-c4ccccc4)c4ncnc(N)c34)ccc12    277 to 279 °C
 2  Nc1ncnc2c1c(C#CCO)nn2Cc1oc2ccccc2c(=O)c1-c1ccccc1    171 to 173 °C
 3  COCc1cccc(-c2nn(C(C)c3oc4ccccc4c(=O)c3-c3cccc(F)c3)c3ncnc(N)c23)c1 (stereo not shown)    167 to 170 °C
 4  Nc1cccc(-c2nn(Cc3oc4ccccc4c(=O)c3-c3ccccc3)c3ncnc(N)c23)c1    157 to 159 °C
 5  COc1ccc(-c2nn(C(C)c3oc4ccccc4c(=O)c3-c3cccc(F)c3)c3ncnc(N)c23)cc1F (stereo not shown)    222 to 224 °C
 6  CC(c1oc2ccccc2c(=O)c1-c1cccc(F)c1)n1nc(-c2cncnc2)c2c(N)ncnc21 (stereo not shown)    207 to 211 °C
 7  CC(c1oc2ccccc2c(=O)c1-c1cccc(F)c1)n1nc(-c2ccc(C=O)o2)c2c(N)ncnc21 (stereo not shown)    215 to 217 °C
 8  CC(c1oc2ccccc2c(=O)c1-c1cccc(F)c1)n1nc(-c2ccc(O)c(O)c2)c2c(N)ncnc21 (stereo not shown)    193 to 195 °C
 9  CC(c1oc2ccc(F)cc2c(=O)c1-c1cccc(F)c1)n1nc(-c2cccc(O)c2)c2c(N)ncnc21 (stereo not shown) [Example 121a]    193 to 196 °C
10  O=c1c(-c2ccccc2)c(CSc2ncnc3[nH]cnc23)oc2ccccc12    208 to 209 °C
11  Nc1ncnc2c1ncn2Cc1oc2ccccc2c(=O)c1-c1ccc(F)cc1    212 to 216 °C
12  CC(c1oc2ccccc2c(=O)c1-c1cccc(F)c1)n1nc(-c2ccc(O)cc2)c2c(N)ncnc21 (stereo not shown) [Example 88a]    244 to 247 °C
13  Nc1ncnc2c1ncn2Cc1oc2ccc(F)cc2c(=O)c1-c1cccc(F)c1    180 to 183 °C
14  CCCOc1cccc(-c2nn(C(C)c3oc4ccccc4c(=O)c3-c3cccc(F)c3)c3ncnc(N)c23)c1 (stereo not shown)    178 to 182 °C
15  CC(C)Oc1ccc(-c2nn(C(C)c3oc4ccccc4c(=O)c3-c3cccc(F)c3)c3ncnc(N)c23)cc1 (stereo not shown)    224 to 226 °C
16  Nc1ncnc2c1c(-c1cc(O)cc(F)c1)nn2Cc1oc2ccccc2c(=O)c1-c1cccc(F)c1    235 to 237 °C
